- Tested on: HCT-116 colon
- assay_overview: NCI tumour cell line growth inhibition, 48 h
readout_kind: TGI (µM)
// units = µM; emit number, no label

{"columns": ["compound", "value_unit", "TGI"],
 "data": [
  ["Cc1ccc(-c2nc(-c3cn(C)c4ncccc34)cs2)cc1", "µM", 12.3],
  ["CCOC(=O)C1([Se]c2ccccc2)CCCC1=O (configuration not stated)", "µM", 30.9],
  ["CCOC(=O)c1cc(C2CCN(c3ccccc3)C2=O)c(C(=O)/C=C(/C)N)[nH]1 (configuration not stated)", "µM", 27.9],
  ["C=C1C(=O)O[C@H]2[C@H]1CC/C(COC(=O)NCCc1c[nH]c3ccc(Cl)cc13)=C\\CC[C@@]1(C)O[C@@H]21", "µM", 2.97],
  ["CC1CN=C(c2cccc(-c3nc(-c4cccc(C5=NCC(C)N5)c4)nc(N(C)C)n3)c2)N1 (configuration not stated)", "µM", 2.49]
]}

O=C(Nc1ccccc1O)c1ccc(NS(=O)(=O)c2cccc3cccnc23)cc1 tested on HCT-116 colon gave TGI: 3.1

COc1nc2c(c(=O)n1C)N=C(c1ccc(Cl)cc1)CC(c1ccccc1)N2 (configuration not stated) tested on HCT-116 colon gave TGI: 63.5

NC(=S)N=Nc1c(O)c2ccccc2c2ccccc12 tested on HCT-116 colon gave TGI: 51.5

CC(=O)c1cc(C(=O)c2ccc3c(c2)Sc2ccccc2N3)c2c(C)cccn12 tested on HCT-116 colon gave TGI: 10.5

CN(C)CCNC(=O)c1cccc2ccc(-c3ccc(-c4ccccc4)cc3)nc12 tested on HCT-116 colon gave TGI: 3.4

Nc1nc(N)c2cc(Sc3cccc(C(F)(F)F)c3)ccc2n1 tested on HCT-116 colon gave TGI: 1.33

Cc1ccc(NCCN(C)C)c2c(=O)c3ccccc3sc12 tested on HCT-116 colon gave TGI: 2.8

O=C1c2ccccc2C(=O)c2c(NCC3CO3)ccc(NCC3CO3)c21 (configuration not stated) tested on HCT-116 colon gave TGI: 1.21

CN1CCN(Cc2ccc3c(NNC(=O)c4ccccc4)nc4cc(F)ccc4n23)CC1 tested on HCT-116 colon gave TGI: 16

C=CCN(c1cc(OC)c2[nH]c(C(=O)OCC)c(C)c2c1[N+](=O)[O-])S(C)(=O)=O tested on HCT-116 colon gave TGI: 58.3
